- measurement_target: Sphingosine 1-phosphate receptor 1 (Homo sapiens)
- measurement_protocol: activates the human S1P1 receptor (AID 1044)
- experimental_conditions: S1P1 agonist cell-based reporter assay; at 4.5 µM
About 240 (1.5%) of roughly 16,000 compounds were called active. Cut-off read from the data, not from the text of the source: active = activation above about 80%; inactive = the rest. Only a selection was taken, and actives are over-represented in it overall.
Tick one outcome: TRUE for active, FALSE for inactive

given_smiles	class_assignment
O=C(Nc1ccccc1)O/N=C1/CCCc2occc21	FALSE
COC(=O)c1sccc1NC(=S)Nc1ccc(C)cc1	FALSE
CO/N=C(/C)c1ccc2c(c1)CCO2	FALSE

Challenge: How was Cc1c(C(=O)Nc2ccccc2)sc2cc(C(C)(C)C)sc12 classified in this test?
Response given: FALSE

Challenge: How was Cc1cc(C(F)(F)F)nc2c(-c3noc(-c4ccccc4)n3)cnn12 classified in this test?
Response given: FALSE

Challenge: How was CSc1nc(N)n(-c2ccccc2)n1 classified in this test?
Response given: FALSE

Challenge: How was O=c1oc2ccc(Cl)cc2cc1-c1ccc([N+](=O)[O-])cc1 classified in this test?
Response given: FALSE

Challenge: How was O=c1c2c(nc3nc[nH]n13)CCC2 classified in this test?
Response given: FALSE

Challenge: How was Cn1cccc1CNC(=O)c1cc(F)cc2c1OCOC2 classified in this test?
Response given: FALSE

Challenge: How was Clc1ccc(CO/N=C/c2nc3ccccc3s2)cc1 classified in this test?
Response given: TRUE

---

- measurement_target: Sphingosine 1-phosphate receptor 1 (Homo sapiens)
- measurement_protocol: activates the human S1P1 receptor (AID 1044)
- experimental_conditions: S1P1 agonist cell-based reporter assay; at 4.5 µM; hits give high values
Among all 16,000 compounds or so, about 240 (1.5%) were called active. For the sample, actives were picked, then their nearest neighbours and some compounds at random.
measured_metric: activation (%)
# value in %; strip the unit string

Example molecules with recorded activation:
given_smiles	activation [%]
CN(C)c1ccc(C=Nc2ccc(S(N)(=O)=O)cc2)cc1	-3.85
Cc1cc(CNC(=O)c2cc(C)n(C)n2)no1	0.51
Cc1nc(-c2cccnc2)nc(N2CCCN(Cc3ccc(F)cc3)CC2)c1Cl	-19.4
CNC(=O)NNC(=O)Cn1nnc(N2CCCCC2)n1	-5.59

Challenge: Provide only the value of recorded activation for N/C(=N\OC(=O)Nc1ccccc1)c1ccc(Oc2c(Cl)cncc2Cl)cc1
Response given: 13.7
